Where these numbers come from: the Human Domainome abundance scans (Beltran et al. 2025)

# abundance fitness listing for each entry below
B1: Receptor-interacting serine/threonine-protein kinase 2, residues 438 to 518; numbered along this chain, O43353 (parent)
chain: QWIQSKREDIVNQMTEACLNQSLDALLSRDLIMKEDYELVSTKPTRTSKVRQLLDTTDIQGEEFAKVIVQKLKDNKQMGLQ

- Variants of: B1
- EXPERIMENT_DESCRIPTION: abundance fitness (aPCA) (normalised: wild type 0, dead -1); higher = more abundant; growth selection in yeast, the domain comes from the species named
- CONDITION_INFO: Homo sapiens
Lab note: record just the number, no unit beside it.

Below, each entry is followed by its recorded abundance fitness result.
[
  {
    "MUTATION_NOTATION": "A25I",
    "abundance fitness": -0.339
  },
  {
    "MUTATION_NOTATION": "K71G",
    "abundance fitness": -0.281
  },
  {
    "MUTATION_NOTATION": "E35I",
    "abundance fitness": -1.12
  },
  {
    "MUTATION_NOTATION": "A25H",
    "abundance fitness": -0.225
  },
  {
    "MUTATION_NOTATION": "M33I",
    "abundance fitness": -0.075
  },
  {
    "MUTATION_NOTATION": "E38C",
    "abundance fitness": -0.719
  },
  {
    "MUTATION_NOTATION": "T45H",
    "abundance fitness": -0.568
  },
  {
    "MUTATION_NOTATION": "A65E",
    "abundance fitness": -0.456
  },
  {
    "MUTATION_NOTATION": "L31R",
    "abundance fitness": -0.732
  },
  {
    "MUTATION_NOTATION": "L23A",
    "abundance fitness": -0.397
  }
]

Let us move to another entry and its abundance fitness.
(Q) Given the variant `L53S` , what is its reported abundance fitness?
(A) -0.679
